conditions: 323.15 K, Ring tensiometer
± gives the expanded uncertainty stated by the source.
measurement_kind: surface tension liquid-gas

>>> print(df.to_string())
                                   molecule            measurement_kind           result
0  CCCC[n+]1cccc(C)c1.O=S(=O)([O-])C(F)(F)F [1-butyl-3-methylpyridinium trifluoromethanesulfonate]  surface tension liquid-gas  36.2 ± 0.6 mN/m
1  CC[n+]1ccccc1.O=S(=O)([N-]S(=O)(=O)C(F)(F)F)C(F)(F)F [1-ethylpyridinium bis[(trifluoromethyl)sulfonyl]imide]  surface tension liquid-gas  35.1 ± 0.6 mN/m
2  CCCCCC[n+]1ccccc1.O=S(=O)([N-]S(=O)(=O)C(F)(F)F)C(F)(F)F [1-hexylpyridinium bis(trifluromethylsulfonyl)imide]  surface tension liquid-gas  32.6 ± 0.5 mN/m
3  CCCC[n+]1ccc(C)cc1.O=S(=O)([N-]S(=O)(=O)C(F)(F)F)C(F)(F)F  surface tension liquid-gas  33.8 ± 0.6 mN/m

Values compiled from the NIST ThermoML archive (doi:10.1016/j.jct.2012.06.018).
